meta.source: paper PMC8158046

Assay: Stability in human whole blood
Type: in vitro ADME
Positions of bridges follow the written chain, without caps; N, C: chain ends. Chains are numbered I, II in the order given. No end group written: not given here.
assayReadout: half-life (h)

>>> observed("I: CGHHLLRPRRRKRPHSIPTPILIFRSP / II: CGHHLLRPRRRKRPHSIPTPILIFRSP (disulfide I:1-II:1) [C24D]")
2.75
